Where do the numbers come from? From patent US10344049B2.

- Test system: human colorectal cancer cells SW-480
- METHOD DESCRIPTION: Cell viability test (Resazurin), SW480 cells
- Format: cell-based
- Set-up: scale not given here
- EXPERIMENTAL CONTEXT: SW480 cells; grade of the IC50 of Table 2
MEASUREMENT TYPE: evaluation of ability to inhibit cell growth activity (IC50)

In [3]: df
Out[3]:
                         compound_structure  recorded_value
0  CC(=O)O[C@H]1C=C2[C@@H](CC[C@H](OC(C)=O)C2(C)C)[C@]2(C=O)CC[C@]3(C)[C@@H]([C@H](C)C/C=C/C(C)(C)O)CC[C@@]3(C)[C@H]12               ◯
1  CC(C)=C[C@H](O)C[C@@H](C)[C@H]1CC[C@@]2(C)[C@@H]3[C@@H](O)C=C4[C@@H](CC[C@H](O)C4(C)C)[C@]3(C=O)CC[C@]12C               ◯
2  CC(=O)O[C@H]1C=C2[C@@H](CC[C@H](O)C2(C)C)[C@]2(C=O)CC[C@]3(C)[C@@H]([C@H](C)C[C@H](C=C(C)C)OC(C)=O)CC[C@@]3(C)[C@H]12               ◯
